Tgt: MERTK (UniProt Q12866)
Sequence (Q12866 whole entry, looked up): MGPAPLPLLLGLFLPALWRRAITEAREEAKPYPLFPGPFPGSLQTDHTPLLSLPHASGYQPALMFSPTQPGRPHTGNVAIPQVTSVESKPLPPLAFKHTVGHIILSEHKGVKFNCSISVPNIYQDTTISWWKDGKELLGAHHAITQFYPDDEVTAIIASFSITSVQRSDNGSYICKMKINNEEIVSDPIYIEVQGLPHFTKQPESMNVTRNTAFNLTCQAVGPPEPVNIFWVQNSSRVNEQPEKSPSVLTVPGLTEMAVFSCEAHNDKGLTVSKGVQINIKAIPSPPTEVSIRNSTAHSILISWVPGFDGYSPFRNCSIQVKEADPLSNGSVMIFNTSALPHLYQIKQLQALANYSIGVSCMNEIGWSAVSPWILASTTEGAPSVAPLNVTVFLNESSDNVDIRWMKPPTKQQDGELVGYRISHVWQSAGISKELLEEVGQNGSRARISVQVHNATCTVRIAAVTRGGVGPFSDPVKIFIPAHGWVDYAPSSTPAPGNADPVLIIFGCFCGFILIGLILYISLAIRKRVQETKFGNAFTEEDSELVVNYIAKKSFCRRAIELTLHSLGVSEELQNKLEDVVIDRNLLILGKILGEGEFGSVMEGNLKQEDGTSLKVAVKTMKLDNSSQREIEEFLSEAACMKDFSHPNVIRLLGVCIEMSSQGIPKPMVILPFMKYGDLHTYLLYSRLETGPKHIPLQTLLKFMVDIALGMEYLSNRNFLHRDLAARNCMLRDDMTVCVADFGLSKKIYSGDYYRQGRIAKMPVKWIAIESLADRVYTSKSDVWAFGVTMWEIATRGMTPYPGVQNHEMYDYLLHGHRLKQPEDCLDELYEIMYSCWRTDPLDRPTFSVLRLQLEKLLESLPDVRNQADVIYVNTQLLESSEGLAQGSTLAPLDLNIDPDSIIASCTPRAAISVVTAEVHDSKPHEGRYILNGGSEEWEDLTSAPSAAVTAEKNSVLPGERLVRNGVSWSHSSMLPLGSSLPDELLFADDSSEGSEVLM
Protocol Description: phosphorylation enrichment, bacterial display (enrichment ratio); higher = better substrate or ligand; peptides without Tyr show the background;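 note: 11-residue human phosphosite peptides and single-mutation variants displayed on the E. coli surface, counted by deep sequencing, each peptide's frequency after selection divided by its frequency in the unselected input library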;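 note: frequency after pTyr selection over input frequency; kinase dosed for 20-30% of maximal phosphorylation in three min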
Measured Metric: phosphorylation enrichment

                       polymer_sequence                     tgt             measured_metric  observed_result
 0        PQQLWYTHKKK [UBTF_Y207_E210K]  MERTK (UniProt Q12866)  phosphorylation enrichment             1.22
 1           CKQGKYLNWDA [ATM_Y54_S49C]  MERTK (UniProt Q12866)  phosphorylation enrichment             0.39
 2              FRARAYGFRGP [CHGA_Y381]  MERTK (UniProt Q12866)  phosphorylation enrichment            0.748
 3     HEKKAYAFCGT [RPS6KA3_Y226_S227A]  MERTK (UniProt Q12866)  phosphorylation enrichment            0.458
 4             GGGFGYQKTKK [DDX18_Y643]  MERTK (UniProt Q12866)  phosphorylation enrichment            0.308
 5      DEDFLCREELA [POR_Y575_Y575C_YF]  MERTK (UniProt Q12866)  phosphorylation enrichment            0.501
 6            SHNELYYEEAE [VANGL1_Y344]  MERTK (UniProt Q12866)  phosphorylation enrichment             0.58
 7  FEKFLYFLPAS [DYNC2H1_Y346_H341Y_YF]  MERTK (UniProt Q12866)  phosphorylation enrichment             1.95
 8   FQLPFYNTVPS [BMPR1A_Y458_M460T_YF]  MERTK (UniProt Q12866)  phosphorylation enrichment            0.569
 9          RLDRSYSFSFS [PEAR1_Y890_YF]  MERTK (UniProt Q12866)  phosphorylation enrichment             0.62
10             ENQEIYQKAFD [KPNA1_Y493]  MERTK (UniProt Q12866)  phosphorylation enrichment            0.616
11               CEAMEYLESKQ [BTK_Y511]  MERTK (UniProt Q12866)  phosphorylation enrichment            0.688
12              GNKENYGLPQP [BUB1_Y538]  MERTK (UniProt Q12866)  phosphorylation enrichment            0.341
13           PDSVDYRKKGF [CTSK_Y121_YF]  MERTK (UniProt Q12866)  phosphorylation enrichment            0.368
